System: Aspergillus furnigatus B. 19119
Method Summary: In vitro antifungal activity, microbroth dilution MIC
Type: cell-based
Cond: A furnigatus B. 19119, RPMI-1640, 35° C., 4 to 48 hours
If the reported Minimal inhibitory concentration (MIC) equals or exceeds 10 µg/mL, assign True. If not, assign False.

[
  {
    "Molecule": "FC(OCC1COC(Cn2ccnc2)(c2ccc(F)cc2F)O1)=C(c1cccc(Cl)c1)C(F)(F)F (mixture of isomers)",
    "System Name": "Aspergillus furnigatus B. 19119",
    "Classification": "False"
  },
  {
    "Molecule": "Cc1ccc(C=C(F)OCC2COC(Cn3ccnc3)(c3ccc(F)cc3F)O2)cc1 (mixture of isomers)",
    "System Name": "Aspergillus furnigatus B. 19119",
    "Classification": "True"
  },
  {
    "Molecule": "Cc1ccc(C(=C(F)OCC2COC(Cn3ccnc3)(c3ccc(Cl)cc3Cl)O2)C(F)(F)F)cc1C (stereo not shown)",
    "System Name": "Aspergillus furnigatus B. 19119",
    "Classification": "True"
  },
  {
    "Molecule": "Cc1cccc(C(=C(F)OCC2COC(Cn3ccnc3)(c3ccc(Cl)cc3Cl)O2)C(F)(F)F)c1 (stereo not shown)",
    "System Name": "Aspergillus furnigatus B. 19119",
    "Classification": "True"
  }
]

Q: Given FC(=Cc1ccc(F)cc1)OCC1COC(Cn2ccnc2)(c2ccc(F)cc2F)O1 (mixture of isomers) , state whether its Minimal inhibitory concentration (MIC) is at least 10 µg/mL.
Result: False

Q: Please tell me: is the molecule FC(OCC1COC(Cn2ccnc2)(c2ccc(Cl)cc2Cl)O1)=C(c1cccs1)C(F)(F)F (mixture of isomers) at or over 10 µg/mL in terms of Minimal inhibitory concentration (MIC)?
Result: True

Q: API: above_or_equal(metric=Minimal inhibitory concentration (MIC), cutoff=10 µg/mL) for item FC(=Cc1ccc(Cl)cc1)OCC1COC(Cn2ccnc2)(c2ccc(F)cc2F)O1 (mixture of isomers)
Result: False

---

Test system: Candida albicans A. 10231
Method Summary: In vitro antifungal activity, microbroth dilution MIC
Type: cell-based
Cond: C. albicans A. 10231, RPMI-1640, 35° C., 4 to 48 hours
Measured Minimal inhibitory concentration (MIC), listed per entry for reference.

For orientation, consider the following solved cases.
[
  {
    "Molecule": "FC(=Cc1ccc(F)cc1)OCC1COC(Cn2ccnc2)(c2ccc(F)cc2F)O1 (mixture of isomers) [Ex. 49]",
    "System Name": "Candida albicans A. 10231",
    "Minimal inhibitory concentration (MIC)": "25.0 µg/mL"
  },
  {
    "Molecule": "Cc1cccc(C(=C(F)OCC2COC(Cn3cncn3)(c3ccc(Cl)cc3Cl)O2)C(F)(F)F)c1 (mixture of isomers) [Ex. 80]",
    "System Name": "Candida albicans A. 10231",
    "Minimal inhibitory concentration (MIC)": ">100 µg/mL"
  }
]

Q: // lookup Minimal inhibitory concentration (MIC) for COc1ccc(C=C(F)OCC2COC(Cn3ccnc3)(c3ccc(Cl)cc3Cl)O2)cc1 (stereo not shown) [Ex. 9]
Result: 12.5 µg/mL

Q: Which Minimal inhibitory concentration (MIC) is listed for Cc1ccc(C=C(F)OCC2COC(Cn3ccnc3)(c3ccc(F)cc3F)O2)cc1 (mixture of isomers) [Ex. 38] ?
Result: 12.5 µg/mL

---

Listed below: Minimal inhibitory concentration(MIC), C. albicans IFO. 1385 values for each entry.
Test system: Candida albicans IFO. 1385
Method Summary: In vitro antifungal activity, microbroth dilution MIC
Assay type: cell-based
Cond: RPMI-1640, 35° C., 4 to 48 hours, no growth observed
Write the quantity with the unit trailing the number.

[
  {
    "Molecule": "Cc1ccc(C(=C(F)Oc2ccc(OCC3COC(Cn4ccnc4)(c4ccc(F)cc4F)O3)cc2)C(F)(F)F)cc1C (mixture of isomers)",
    "Experimental Value": "3.13 mg/L"
  }
]

Q: Recorded Minimal inhibitory concentration(MIC), C. albicans IFO. 1385 of CC(C)(C)c1ccc(C(=C(F)N2CCN(c3ccc(OCC4COC(Cn5ccnc5)(c5ccc(Cl)cc5Cl)O4)cc3)CC2)C(F)(F)F)cc1 (mixture of isomers) , please.
Result: 1.56 mg/L

Q: Please report the recorded Minimal inhibitory concentration(MIC), C. albicans IFO. 1385 for COc1ccc(C(=C(F)N2CCN(c3ccc(OCC4COC(Cn5ccnc5)(c5ccc(F)cc5F)O4)cc3)CC2)C(F)(F)F)cc1 (mixture of isomers) .
Result: 0.39 mg/L

Q: Item under review: FC(=C(c1cccc(Cl)c1)C(F)(F)F)N1CCN(c2ccc(OCC3COC(Cn4ccnc4)(c4ccc(Cl)cc4Cl)O3)cc2)CC1 (mixture of isomers) . Reported Minimal inhibitory concentration(MIC), C. albicans IFO. 1385?
Result: 3.13 mg/L

Q: Give its Minimal inhibitory concentration(MIC), C. albicans IFO. 1385 value. Item: COc1ccc(C(=C(F)Oc2ccc(OCC3COC(Cn4cncn4)(c4ccc(Cl)cc4Cl)O3)cc2)C(F)(F)F)cc1 (mixture of isomers)
Result: 3.13 mg/L

Q: Would you kindly share the measured Minimal inhibitory concentration(MIC), C. albicans IFO. 1385 for FC(=C(c1ccc(C(F)(F)F)cc1)C(F)(F)F)N1CCN(c2ccc(OCC3COC(Cn4ccnc4)(c4ccc(Cl)cc4Cl)O3)cc2)CC1 (mixture of isomers) ?
Result: 3.13 mg/L

Q: Quick one: Minimal inhibitory concentration(MIC), C. albicans IFO. 1385 of FC(Oc1ccc(OCC2COC(Cn3cncn3)(c3ccc(Cl)cc3Cl)O2)cc1)=C(c1ccccc1)C(F)(F)F (mixture of isomers) ?
Result: 1.56 mg/L

---

Test system: Aspergillus furnigatus B. 19119
Method Summary: In vitro antifungal activity, microbroth dilution MIC
Type: cell-based
Cond: A furnigatus B. 19119, RPMI-1640, 35° C., 4 to 48 hours
Measured Minimal inhibitory concentration (MIC) of individual entries
// note: answer is a bare numeric in µg/mL

[
  {
    "Compound": "FC(=Cc1cccc2ccccc12)OCC1COC(Cn2ccnc2)(c2ccc(F)cc2F)O1 (mixture of isomers)",
    "Minimal inhibitory concentration (MIC) [µg/mL]": 3.13
  },
  {
    "Compound": "FC(=Cc1ccc(Cl)cc1)OCC1COC(Cn2ccnc2)(c2ccc(Cl)cc2Cl)O1 (stereo not shown)",
    "Minimal inhibitory concentration (MIC) [µg/mL]": 6.25
  }
]

Q: State the recorded Minimal inhibitory concentration (MIC) for this entry: FC(=Cc1cccc(F)c1)OCC1COC(Cn2ccnc2)(c2ccc(Cl)cc2Cl)O1 (stereo not shown)
Result: 0.78

---

We begin with a simple list: items and their reported Minimal inhibitory concentration (MIC).
Tested on: Candida albicans A. 10231
Method Summary: In vitro antifungal activity, microbroth dilution MIC
Format: cell-based
Cond: C. albicans A. 10231, RPMI-1640, 35° C., 4 to 48 hours
The reply should read as a number followed by its unit.

Look over these answered cases.
[
  {
    "Compound": "FC(OCC1COC(Cn2ccnc2)(c2ccc(Cl)cc2Cl)O1)=C(c1ccc2c(c1)OCO2)C(F)(F)F (stereo not drawn) [Ex. 28]",
    "Observable": "Minimal inhibitory concentration (MIC)",
    "Experimental Value": "25.0 mg/L"
  },
  {
    "Compound": "Cc1cc(C=C(F)OCC2COC(Cn3ccnc3)(c3ccc(F)cc3F)O2)ccc1Cl (mixture of isomers) [Ex. 50]",
    "Observable": "Minimal inhibitory concentration (MIC)",
    "Experimental Value": "12.5 mg/L"
  },
  {
    "Compound": "FC(OCC1COC(Cn2ccnc2)(c2ccc(Cl)cc2Cl)O1)=C(c1cccc(F)c1)C(F)(F)F (mixture of isomers) [Ex. 32]",
    "Observable": "Minimal inhibitory concentration (MIC)",
    "Experimental Value": "6.25 mg/L"
  },
  {
    "Compound": "FC(=Cc1ccccc1)OC[C@H]1CO[C@](Cn2ccnc2)(c2ccc(Cl)cc2Cl)O1 (relative stereo) [Example 1]",
    "Observable": "Minimal inhibitory concentration (MIC)",
    "Experimental Value": "25.0 mg/L"
  }
]

Q: // returns reported Minimal inhibitory concentration (MIC) for input FC(OCC1COC(Cn2ccnc2)(c2ccc(F)cc2F)O1)=C(c1cccs1)C(F)(F)F (mixture of isomers) [Ex. 68]
Result: 6.25 mg/L

Q: GET /values?readout=Minimal inhibitory concentration (MIC)&item= Cc1cc(C)cc(C(=C(F)OCC2COC(Cn3ccnc3)(c3ccc(Cl)cc3Cl)O2)C(F)(F)F)c1 (stereo not drawn) [Ex. 24]
Result: 6.25 mg/L

Q: Form field: reported Minimal inhibitory concentration (MIC) of Cc1ccc(C=C(F)OCC2COC(Cn3ccnc3)(c3ccc(Cl)cc3Cl)O2)cc1 (stereo not drawn) [Ex. 3]
Result: 12.5 mg/L

Q: Requested field: Minimal inhibitory concentration (MIC). Item: FC(=Cc1ccccc1)OCC1COC(Cn2ccnc2)(c2ccc(F)cc2F)O1 (mixture of isomers) [Ex. 36]
Result: 50.0 mg/L

Q: Entry Cc1cc(C)cc(C(=C(F)OCC2COC(Cn3ccnc3)(c3ccc(F)cc3F)O2)C(F)(F)F)c1 (mixture of isomers) [Ex. 57] : reported Minimal inhibitory concentration (MIC) = ?
Result: 12.5 mg/L

Reference source for all entries: patent US6376497B1
